Data provenance is patent US12365850B2.

# Lookup of reported pH change rate (%) keyed by entry
PROTOCOL NOTES: pH drop suppression test of water-miscible cutting fluid (circulation and blue LED irradiation)
Type: physicochemical
CONDITION SUMMARY: 100%×(pH at preparation−pH after continuing use)/(pH at preparation); riboflavin cutting fluid with the named antioxidant
RECORDED METRIC: pH change rate (%)

[[record]]
compound = "O=C1O[C@H]([C@@H](O)CO)C([O-])=C1O.[Na+] [Sodium ascorbate]"
quantitative_readout = 24.4

[[record]]
compound = "OCCNCCO [Diethanolamine]"
quantitative_readout = 8.1

[[record]]
compound = "NCCO [Monoethanol amine]"
quantitative_readout = 17.4

[[record]]
compound = "Cc1c(C)c2c(c(C)c1O)CC[C@@](C)(CCC[C@H](C)CCC[C@H](C)CCCC(C)C)O2 [D-α-tocopherol]"
quantitative_readout = 7.0

[[record]]
compound = "NCC1CCCC(CN)C1 (centres unmarked) [1,3-Bis(aminomethyl)cyclohexane]"
quantitative_readout = 16.3


###

PROTOCOL NOTES: pH drop suppression test of water-miscible cutting fluid (circulation and blue LED irradiation)
Assay type: physicochemical
RECORDED METRIC: pH change

[[record]]
molecule = "CC(C)(C)c1ccc(OP(Oc2ccc(C(C)(C)C)cc2C(C)(C)C)Oc2ccc(C(C)(C)C)cc2C(C)(C)C)c(C(C)(C)C)c1 [Tris(2,4-di-tert-butylphenyl) phosphite]"
recorded_metric = "pH change"
result = 0.4

[[record]]
molecule = "O=C([O-])CN(CCN(CC(=O)[O-])CC(=O)O)CC(=O)O.[Na+].[Na+] [Disodium edetate]"
recorded_metric = "pH change"
result = 0.8

[[record]]
molecule = "Sc1nc2ccccc2[nH]1 [2-mercaptobenzimidazole]"
recorded_metric = "pH change"
result = 2.4

[[record]]
molecule = "CC(O)CN(CC(C)O)CC(C)O (stereo not shown) [Triisopropanolamine]"
recorded_metric = "pH change"
result = 0.8


###

PROTOCOL NOTES: pH drop suppression test of water-miscible cutting fluid (circulation and blue LED irradiation)
Format: physicochemical
CONDITION SUMMARY: riboflavin cutting fluid containing the named antioxidant, one month; Table 3 (same values as Table 2)
RECORDED METRIC: pH change

[[record]]
compound = "CCC(C)Nc1ccc(NC(C)CC)cc1 (centres unmarked)"
recorded_metric = "pH change"
quantitative_readout = 0.4

[[record]]
compound = "CC(C)(C)c1cc(CCC(=O)OCC(COC(=O)CCc2cc(C(C)(C)C)c(O)c(C(C)(C)C)c2)(COC(=O)CCc2cc(C(C)(C)C)c(O)c(C(C)(C)C)c2)COC(=O)CCc2cc(C(C)(C)C)c(O)c(C(C)(C)C)c2)cc(C(C)(C)C)c1O"
recorded_metric = "pH change"
quantitative_readout = 0.5

[[record]]
compound = "CC(O)CN (centres unmarked)"
recorded_metric = "pH change"
quantitative_readout = 1.7

[[record]]
compound = "O=C1O[C@H]([C@@H](O)CO)C([O-])=C1O.[Na+] [Sodium ascorbate]"
recorded_metric = "pH change"
quantitative_readout = 2.1

[[record]]
compound = "CC(O)CNCC(C)O (centres unmarked)"
recorded_metric = "pH change"
quantitative_readout = 0.7

[[record]]
compound = "OCCNCCO"
recorded_metric = "pH change"
quantitative_readout = 0.7

[[record]]
compound = "NCCO"
recorded_metric = "pH change"
quantitative_readout = 1.5

[[record]]
compound = "Cc1cc(C(C)(C)C)c(O)c(C(C)(C)C)c1 [BHT, butylated hydroxytoluene]"
recorded_metric = "pH change"
quantitative_readout = 1

[[record]]
compound = "CC(C)(C)c1cc(Cn2c(=O)n(Cc3cc(C(C)(C)C)c(O)c(C(C)(C)C)c3)c(=O)n(Cc3cc(C(C)(C)C)c(O)c(C(C)(C)C)c3)c2=O)cc(C(C)(C)C)c1O"
recorded_metric = "pH change"
quantitative_readout = 0.8

[[record]]
compound = "NCC1CCCC(CN)C1 (centres unmarked)"
recorded_metric = "pH change"
quantitative_readout = 1.4

[[record]]
compound = "Cc1c(C)c2c(c(C)c1O)CC[C@@](C)(CCC[C@H](C)CCC[C@H](C)CCCC(C)C)O2"
recorded_metric = "pH change"
quantitative_readout = 0.6


###

PROTOCOL NOTES: pH drop suppression test of water-miscible cutting fluid (circulation and blue LED irradiation)
Type: physicochemical
CONDITION SUMMARY: 100%×(pH at preparation−pH after continuing use)/(pH at preparation); riboflavin cutting fluid with the named antioxidant
RECORDED METRIC: pH change rate (%)

[[record]]
compound = "CC(C)(C)c1cc(CCC(=O)OCC(COC(=O)CCc2cc(C(C)(C)C)c(O)c(C(C)(C)C)c2)(COC(=O)CCc2cc(C(C)(C)C)c(O)c(C(C)(C)C)c2)COC(=O)CCc2cc(C(C)(C)C)c(O)c(C(C)(C)C)c2)cc(C(C)(C)C)c1O"
units_of_measure = "%"
quantitative_readout = 5.8

[[record]]
compound = "CCC(C)Nc1ccc(NC(C)CC)cc1 (stereo not drawn)"
units_of_measure = "%"
quantitative_readout = 4.7

[[record]]
compound = "CC(O)CNCC(C)O (stereo not drawn)"
units_of_measure = "%"
quantitative_readout = 8.1

[[record]]
compound = "CC(C)(C)c1cc(Cn2c(=O)n(Cc3cc(C(C)(C)C)c(O)c(C(C)(C)C)c3)c(=O)n(Cc3cc(C(C)(C)C)c(O)c(C(C)(C)C)c3)c2=O)cc(C(C)(C)C)c1O"
units_of_measure = "%"
quantitative_readout = 9.3

[[record]]
compound = "CC(O)CN (stereo not drawn)"
units_of_measure = "%"
quantitative_readout = 19.8

[[record]]
compound = "Cc1cc(C(C)(C)C)c(O)c(C(C)(C)C)c1 [BHT, butylated hydroxytoluene]"
units_of_measure = "%"
quantitative_readout = 11.6


###

# Lookup of reported pH change rate (%) keyed by entry
PROTOCOL NOTES: pH drop suppression test of water-miscible cutting fluid (circulation and blue LED irradiation)
Format: physicochemical
RECORDED METRIC: pH change rate (%)

[[record]]
compound = "Sc1nc2ccccc2[nH]1"
result = "27.9%"

[[record]]
compound = "CC(O)CN(CC(C)O)CC(C)O (stereo not shown)"
result = "9.3%"

[[record]]
compound = "O=C([O-])CN(CCN(CC(=O)[O-])CC(=O)O)CC(=O)O.[Na+].[Na+] [Disodium edetate]"
result = "9.3%"

[[record]]
compound = "CC(C)(C)c1ccc(OP(Oc2ccc(C(C)(C)C)cc2C(C)(C)C)Oc2ccc(C(C)(C)C)cc2C(C)(C)C)c(C(C)(C)C)c1"
result = "4.7%"

